- Tested on: HT-29
- assaySummary: SRB colorimetric cell growth inhibition assay, HT-29
- Type: cell-based
- testContext: Homo sapiens, HT-29, read-out: LC50 HT-29, HT-29; LC=cell killing (cytotoxic effect)
- Protocol: The finality of these assays is to interrupt the growth of an “in vitro” tumor cell culture by means a continued exhibition of the cells to the sample to be testing. A colorimetric type of assay, using sulforhodamine B (SRB) reaction has been adapted for a quantitative measurement of cell growth and viability (following the technique described by P. A. Skehan, et al., J. Natl. Cancer Inst. 1990, 82, 1107-1112). […] The values for mean +/− SD of data from triplicate wells are calculated. […]
Please use 1 (yes) for CC50 under 9 µM and 0 (no) for everything else, ties included.

{"columns": ["smiles", "assignedLabel"],
 "data": [
  ["COc1cc(-c2c3c4cc(OC)c(OC(=O)[C@H](N)C(C)C)cc4oc(=O)c3n3ccc4c(OC(=O)[C@H](N)C(C)C)c(OC)c(OC)cc4c23)ccc1OC(=O)[C@H](N)C(C)C", "0 (no)"],
  ["COc1cc(-c2c3n(c4c(=O)oc5cc(OC(=O)[C@@H](N)C(C)C)c(OC)cc5c24)CCc2cc(OC(=O)[C@@H](N)C(C)C)c(OC)cc2-3)ccc1OC(=O)[C@@H](N)C(C)C", "0 (no)"],
  ["COc1cc(-c2c3c4cc(OC)c(OC(=O)[C@@H](N)C(C)C)cc4oc(=O)c3n3ccc4c(OC(=O)[C@@H](N)C(C)C)c(OC)c(OC)cc4c23)ccc1OC(=O)[C@@H](N)C(C)C", "1 (yes)"],
  ["COc1cc(-c2c3n(c4c(=O)oc5cc(OC(=O)[C@H](C)NC(=O)OC(C)(C)C)c(OC)cc5c24)CCc2c-3cc(OC)c(OC)c2OC(=O)[C@H](C)NC(=O)OC(C)(C)C)ccc1OC(=O)[C@H](C)NC(=O)OC(C)(C)C", "0 (no)"],
  ["COc1cc(-c2c3n(c4c(=O)oc5cc(OC(=O)[C@@H](N)CO)c(OC)cc5c24)CCc2c-3cc(OC)c(OC)c2OC(=O)[C@@H](N)CO)ccc1OC(=O)[C@@H](N)CO", "1 (yes)"],
  ["COc1cc(-c2c3c4cc(OC)c(OC(=O)[C@@H](N)CCCCNC(=O)OCc5ccccc5)cc4oc(=O)c3n3ccc4c(OC(=O)[C@@H](N)CCCCNC(=O)OCc5ccccc5)c(OC)c(OC)cc4c23)ccc1OC(=O)[C@@H](N)CCCCNC(=O)OCc1ccccc1", "1 (yes)"]
]}

* * *

The entries below are paired with their reported CC50.
- Test system: A-549
- assaySummary: SRB colorimetric cell growth inhibition assay, A-549
- Type: cell-based
- testContext: Homo sapiens, A549, A-549; cell killing (cytotoxic effect); read-out: LC50 A-549
propertyMeasured: CC50 (µM)

{"columns": ["compound", "numericReadout"],
 "data": [
  ["COc1cc(-c2c3c4cc(OC)c(OC(=O)[C@@H](N)Cc5ccccc5)cc4oc(=O)c3n3ccc4cc(OC(=O)[C@@H](N)Cc5ccccc5)c(OC)cc4c23)ccc1OC(=O)[C@@H](N)Cc1ccccc1 [Compound 204]", 9.52],
  ["COc1cc(-c2c3c4cc(OC)c(OC(=O)[C@H](N)C(C)C)cc4oc(=O)c3n3ccc4cc(OC(=O)[C@H](N)C(C)C)c(OC)cc4c23)ccc1OC(=O)[C@H](N)C(C)C [Compound 17]", 8.48],
  ["COc1cc(-c2c3c4cc(OC)c(OC(C)C)cc4oc(=O)c3n3ccc4c(OC(C)C)c(OC)c(OC)cc4c23)ccc1OC(C)C [Compound 27]", 15.2],
  ["COc1cc(-c2c3n(c4c(=O)oc5cc(O)c(OC)cc5c24)CCc2cc(O)c(OC)cc2-3)ccc1O [Compound 109]", 19.9],
  ["CC[C@H](C)[C@H](NC(=O)OC(C)(C)C)C(=O)Oc1ccc(-c2c3c4cc(OC)c(OC(=O)[C@@H](NC(=O)OC(C)(C)C)[C@@H](C)CC)cc4oc(=O)c3n3ccc4cc(OC(=O)[C@@H](NC(=O)OC(C)(C)C)[C@@H](C)CC)c(OC)cc4c23)cc1OC [Compound 208]", 8.78]
]}

Reference source for all entries: patent US7396837B2
